Reported % change in SGLT2 expression relative to saline values follow for various substances
- Tested on: mouse SGLT2 mRNA
- Test summary: Mouse SGLT2 mRNA levels in kidney, additional 1-10-1 and 2-8-2 MOE gapmers, Balb/c mice (Example 15, Table 68)
- Format: in vivo
- Conditions used: 0.1 umol/kg i.p. twice per week for three weeks
Strand notation (5' to 3'): a small letter for the sugar, then the base; units joined by * are phosphorothioate-linked, units joined directly phosphodiester-linked; [ ] holds rarer units or linkages, { } end groups; capitals alone tell only the bases. e = 2'-O-(2-methoxyethyl) (MOE); [5mC] = 5-methylcytosine; d = 2'-deoxy (DNA)
The reply should contain only the number, in %.

Substance: ISIS 388627 (antisense eG*e[5mC]*dA*d[5mC]*dA*d[5mC]*dA*dG*d[5mC]*dT*eG*e[5mC])
Tested target: mouse SGLT2 mRNA
Unit of measure: %
Observed: −50
--
Substance: ISIS 379702: targeted to SGLT2 (antisense eG*d[5mC]*dA*d[5mC]*dA*d[5mC]*dA*dG*d[5mC]*dT*dG*e[5mC])
Tested target: mouse SGLT2 mRNA
Unit of measure: %
Observed: −65

Turning now to a further substance:
Look at this substance and give its reported % change in SGLT2 expression relative to saline. ISIS 388626: SGLT2; GGCATGAGCTTC 2-8-2 MOE (antisense eG*eG*d[5mC]*dA*dT*dG*dA*dG*d[5mC]*dT*eT*e[5mC])
−60

Provenance of the data: patent US8188059B2
